Target: huCD28 (human, UniProt P10747 19-152, limits assumed)
Test: SPR, OAA format
Quantity name: Kd
Answers without a unit are incomplete; give the number and then its unit.

Binder: v37876 (antibody, V domains shown, OAA format as v34891; also called huTN228 S1069A (VL) OAA) VH: QVQLQESGPGLVKPSETLSLTCAVSGFSLTSYGVHWIRQPPGKGLEWLGVIWPGGGTNFNSALMSRLTISEDTSKNQVSLKLSSVTAADTAVYYCARDRAYGNYLYAMDYWGQGTLVTVSS VL: DIQMTQSPSSLSASVGDRVTITCRASESVEYYVTSLMQWYQQKPGKAPKLLIYAASNVDAGVPSRFSGSGSGTDFTLTISSLQPEDIATYYCQQSRKVPFTFGGGTKVEIK
Observed result: 56.4 nM
//
Binder: v37884 (antibody, V domains shown, OAA format as v34891; also called huTN228 L1112AI (VH) OAA) VH: QVQLQESGPGLVKPSETLSLTCAVSGFSLTSYGVHWIRQPPGKGLEWLGVIWPGGGTNFNSALMSRLTISEDTSKNQVSLKLSSVTAADTAVYYCARDRAYGNYIYAMDYWGQGTLVTVSS VL: DIQMTQSPSSLSASVGDRVTITCRASESVEYYVTSLMQWYQQKPGKAPKLLIYAASNVDSGVPSRFSGSGSGTDFTLTISSLQPEDIATYYCQQSRKVPFTFGGGTKVEIK
Observed result: 133 nM
//
Binder: v37843 (antibody, V domains shown, OAA format as v34891; also called huTN228 T1035A (VH) OAA) VH: QVQLQESGPGLVKPSETLSLTCAVSGFSLASYGVHWIRQPPGKGLEWLGVIWPGGGTNFNSALMSRLTISEDTSKNQVSLKLSSVTAADTAVYYCARDRAYGNYLYAMDYWGQGTLVTVSS VL: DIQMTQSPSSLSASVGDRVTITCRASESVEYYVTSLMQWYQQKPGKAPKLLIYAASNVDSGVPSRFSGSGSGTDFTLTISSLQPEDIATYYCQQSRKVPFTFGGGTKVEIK
Observed result: 64 nM
//
Binder: v37856 (antibody, V domains shown, OAA format; also called huTN228 N1111AA (VH) OAA) VH: QVQLQESGPGLVKPSETLSLTCAVSGFSLTSYGVHWIRQPPGKGLEWLGVIWPGGGTNFNSALMSRLTISEDTSKNQVSLKLSSVTAADTAVYYCARDRAYGAYLYAMDYWGQGTLVTVSS VL: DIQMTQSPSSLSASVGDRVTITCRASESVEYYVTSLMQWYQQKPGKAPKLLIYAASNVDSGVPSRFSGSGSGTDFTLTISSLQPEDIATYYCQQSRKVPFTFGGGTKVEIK
Observed result: 542 nM

Input line: Endpoint output: Kd of v37882 (antibody, V domains shown, OAA format as v34891; also called huTN228 S1036T (VH) OAA) VH: QVQLQESGPGLVKPSETLSLTCAVSGFSLTTYGVHWIRQPPGKGLEWLGVIWPGGGTNFNSALMSRLTISEDTSKNQVSLKLSSVTAADTAVYYCARDRAYGNYLYAMDYWGQGTLVTVSS VL: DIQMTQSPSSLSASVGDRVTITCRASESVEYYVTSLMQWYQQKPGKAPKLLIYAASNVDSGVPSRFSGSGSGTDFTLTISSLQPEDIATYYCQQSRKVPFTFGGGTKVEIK . Value?
Output line: 51.7 nM

Input line: Bench note: what Kd did v37855 (antibody, V domains shown, OAA format as v34891; also called huTN228 G1111A (VH) OAA) VH: QVQLQESGPGLVKPSETLSLTCAVSGFSLTSYGVHWIRQPPGKGLEWLGVIWPGGGTNFNSALMSRLTISEDTSKNQVSLKLSSVTAADTAVYYCARDRAYANYLYAMDYWGQGTLVTVSS VL: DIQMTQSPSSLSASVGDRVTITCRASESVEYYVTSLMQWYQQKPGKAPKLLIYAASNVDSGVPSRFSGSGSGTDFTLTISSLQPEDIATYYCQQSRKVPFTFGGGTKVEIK show?
Output line: 73.7 nM

Input line: Would you kindly share the measured Kd for v34891 (parental huTN228 OAA) (antibody, V domains shown, one-arm Fab antibody (OAA) format; also called huTN228 parental one-arm Fab antibody) VH: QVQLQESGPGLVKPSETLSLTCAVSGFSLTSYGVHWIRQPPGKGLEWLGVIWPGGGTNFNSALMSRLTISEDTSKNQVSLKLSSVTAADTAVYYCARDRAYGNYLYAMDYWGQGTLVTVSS VL: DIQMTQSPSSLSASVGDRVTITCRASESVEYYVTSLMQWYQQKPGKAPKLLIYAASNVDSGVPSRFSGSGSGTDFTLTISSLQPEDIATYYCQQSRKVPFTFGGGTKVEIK ?
Output line: 87.9 nM

Input line: Form field: reported Kd of v37875 (antibody, V domains shown, OAA format as v34891; also called huTN228 D1068A (VL) OAA) VH: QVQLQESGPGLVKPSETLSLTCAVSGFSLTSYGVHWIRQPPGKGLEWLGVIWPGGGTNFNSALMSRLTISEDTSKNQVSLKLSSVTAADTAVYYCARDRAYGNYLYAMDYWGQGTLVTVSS VL: DIQMTQSPSSLSASVGDRVTITCRASESVEYYVTSLMQWYQQKPGKAPKLLIYAASNVASGVPSRFSGSGSGTDFTLTISSLQPEDIATYYCQQSRKVPFTFGGGTKVEIK
Output line: 46.6 nM

Input line: May I ask what Kd has been recorded for v37868 (antibody, V domains shown, OAA format as v34891; also called huTN228 Y1034A (VL) OAA) VH: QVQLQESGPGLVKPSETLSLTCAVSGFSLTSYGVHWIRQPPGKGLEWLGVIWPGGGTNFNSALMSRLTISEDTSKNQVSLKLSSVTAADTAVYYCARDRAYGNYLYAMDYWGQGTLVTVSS VL: DIQMTQSPSSLSASVGDRVTITCRASESVEYAVTSLMQWYQQKPGKAPKLLIYAASNVDSGVPSRFSGSGSGTDFTLTISSLQPEDIATYYCQQSRKVPFTFGGGTKVEIK ?
Output line: 472 nM

These measurements were taken from patent US20260028403A1.
